# STUDY_TARGET: T1, HLA-A*02:01 molecule
# T1 construct: MHC class I molecule on T2 cells (ATCC); also called product of an HLA-A*02:01 gene; allele A*02:01
# MEASUREMENT_PROTOCOL: flow cytometry, T2 cells
MEASUREMENT_TYPE: log Kd

query: Retrieve log Kd measured for SSFEFFEEA (synthetic 9-mer derived from c-Myb) [peptide of SEQ ID NO: 37] and print it.
result: -6.49

query: Retrieve log Kd measured for MLPQTPSHL (synthetic 9-mer derived from c-Myb) [peptide of SEQ ID NO: 24] and print it.
result: -5.58

query: Retrieve log Kd measured for KFLEAFHEV (synthetic 9-mer derived from EVC1) [peptide of SEQ ID NO: 8] and print it.
result: -5.93

query: Retrieve log Kd measured for YVYDPPTTI (synthetic 9-mer derived from CADM1) [peptide of SEQ ID NO: 2] and print it.
result: -6.16

query: Retrieve log Kd measured for LLLFSAAAL (synthetic 9-mer derived from CADM1) [peptide of SEQ ID NO: 1] and print it.
result: -6.06

query: Retrieve log Kd measured for HMAKVIEFL (synthetic 9-mer derived from EVC1) [peptide of SEQ ID NO: 38] and print it.
result: -5.69

query: Retrieve log Kd measured for CLDEHQWQL (synthetic 9-mer derived from EVC1) [peptide of SEQ ID NO: 9] and print it.
result: -6.66
